- Test system: rabbit skeletal myofibrils (approximately 90% fast fibers)
- protocol_notes: Activation of fast skeletal myofibrils (PUMA coupled-enzyme ATPase assay)
- Format: biochemical
- setup_conditions: AC1.4 = concentration at which the compound increased the enzymatic activity by 40%; myofibril suspension at calcium level pCa25; PM12 buffer pH 6.8
- Excerpt: Preparation of fast skeletal myofibrils. […] Activation of Fast Skeletal Myofibrils. […] This assay regenerates myosin-produced ADP into ATP by oxidizing NADH, producing an absorbance change at 340 nm. […] Using procedures similar to those described herein, utilizing reagents and intermediates commercially available (e.g., Sigma-Aldrich,) or readily synthesized by one of skill in the art, the compounds in Table 2 were synthesized, characterized and tested. […]

molecule	Mean AC1.4
CC(C)(C)Nc1ncc(-c2cc(C(N)=O)ccc2F)nn1	D (D=>20 uM)
CC(C)(Nc1ncc(-c2cccc(CC(N)=O)c2)nn1)c1ncccc1F	D (D=>20 uM)
OCc1cnc(-c2cnc(NCC3(c4ncccc4F)CCC3)nn2)s1	C (C=10-20 uM)
CC(C)(Nc1ncc(-c2cc(C(=O)NC[C@H](O)CO)ccc2F)nn1)c1ncccc1F	C (C=10-20 uM)
CC(C)(Nc1ncc(-c2cc(CNC(=O)CN)ccc2F)nn1)c1ncccc1F	B (B=1-10 uM)
c1ccc(-c2cccc(NC3(c4ccccc4)CCC3)n2)cc1	D (D=>20 uM)
CC(C)(CNc1ccc(C(O)CO)cn1)c1ccc(F)cc1 (stereo not shown)	D (D=>20 uM)
CC(C)(CNc1ncc(-c2cc(C(=O)O)ccc2F)nn1)c1ncccc1Cl	B (B=1-10 uM)
NC(=O)c1ccc(F)c(-c2cnc(NC3(c4ccc(F)cc4)CCC3)nn2)c1	B (B=1-10 uM)
CC(C)(Nc1ncc(-c2cc(C#N)ccc2F)nn1)c1cccc(C(F)F)n1	B (B=1-10 uM)
N#Cc1cc(-c2cnc(NCC3(c4ncccc4F)CCC3)nn2)ccc1F	C (C=10-20 uM)
CC(C)(CNc1ccc(C(N)=O)cn1)c1ccc(F)cc1	C (C=10-20 uM)
NC(=O)c1cccc(-c2ccc(NCCc3ccc(F)cc3)nc2)c1	D (D=>20 uM)
NC(=O)c1cnn(-c2cnc(NC3(c4ncccc4F)CCC3)nn2)c1	D (D=>20 uM)
NC(=O)c1cccc(-c2cnc(NCC3(c4ncccc4F)CCC3)nn2)c1	B (B=1-10 uM)
COC(=O)NCCc1ccc(NCC(C)(C)c2ccc(F)cc2)nc1	D (D=>20 uM)
c1ccc(-c2ccc(NC3(c4ccccc4)CCC3)nc2)cc1	B (B=1-10 uM)
COC(=O)NCc1ccc(NCC(C)(C)c2ccc(F)cc2)nc1	D (D=>20 uM)
Fc1cccnc1C1(CNc2ncc(-c3ccc4[nH]ncc4c3)nn2)CCC1	B (B=1-10 uM)
NC(=O)c1ccc(F)c(-c2cnc(NCC3(c4ccccn4)CCC3)nn2)c1	B (B=1-10 uM)
N#Cc1cccc(-c2cnc(NCC3(c4ccccn4)CCC3)nn2)c1	B (B=1-10 uM)

The measured values listed here are drawn from patent US9994528B2.
